The binders listed here are annotated with their % Inhibition.
SYSTEM UNDER TEST: T1, soluble human Lag3-IgG1-Fc with biotinylated C-terminal Avi-tag (human, biotin on the C-terminal Avi-tag)
T1 construct: also called LAG3-Fc-avi; biotinylated LAG3-Fc antigen
RUN DESCRIPTION: A375 MHCII competition ELISA at 3 µg/ml, biotinylated Lag3 250 ng/ml; competitor MHCII on A375 cells
READOUT: % Inhibition (%)

>>> readout_number("bivalent P11A2 aVH-Fc (Fc fusion) EVQLVESGGGLVQPGGSLRLSCAASSFNIKDTYIGWVRRAPGKGTELVAEIACHEGTTRYADSVKGRFTISCDTSKNTAYLQMNSLRAEDTAVYYCANTEYDDIFDYWGQGTTVTVSSGGGGSGGGGSDKTHTCPPCPAPEAAGGPSVFLFPPKPKDTLMISRTPEVTCVVVDVSHEDPEVKFNWYVDGVEVHNAKTKPREEQYNSTYRVVSVLTVLHQDWLNGKEYKCKVSNKALGAPIEKTISKAKGQPREPQVYTLPPSRDELTKNQVSLTCLVKGFYPSDIAVEWESNGQPENNYKTTPPVLDSDGSFFLYSKLTVDKSRWQQGNVFSCSVMHEALHNHYTQKSLSLSPGK")
92.4
>>> readout_number("bivalent 19G3 aVH-Fc (Fc fusion) EVQLVESGGGLVQPGGSLRLSCAASGFNIKYQCIGWVRRAPGKGTELVAEICSYDGYTRYADSVKGRFTISADTSKNTAYLQMNSLRAEDTAVYYCAAEESVEGFIYWGQGTTVTVSSGGGGSGGGGSDKTHTCPPCPAPEAAGGPSVFLFPPKPKDTLMISRTPEVTCVVVDVSHEDPEVKFNWYVDGVEVHNAKTKPREEQYNSTYRVVSVLTVLHQDWLNGKEYKCKVSNKALGAPIEKTISKAKGQPREPQVYTLPPSRDELTKNQVSLTCLVKGFYPSDIAVEWESNGQPENNYKTTPPVLDSDGSFFLYSKLTVDKSRWQQGNVFSCSVMHEALHNHYTQKSLSLSPGK")
91.9
